assay_system: RSV fusion glycoprotein (RSV F) on RSV-A2 virus (respiratory syncytial virus, UniProt P03420 26-574)
experimental_details: cell-based or functional assay
property_measured: Neutralization IC50 (RSV subtype A) (µg/mL)
Record the value in µg/mL, omitting the unit from your answer.

Query: What does the record list as Neutralization IC50 (RSV subtype A) for ADI-41449 (antibody, V domains shown, IgG1) VH: EVQLVESGGGLVKPGGSLRLSCAASGFSFSSYRVNWVRQAPGKGLEWVSSITGGSSFIDYADSVKGRFTISRDNAKNSLFLQMNSLRAEDTAVYFCARDSMTTVTNSLAFDIWGQGTMVTVSS VL: QSVLTQPPSVSGAPGQRVTISCTGSSSNIGVGYDVQWYQQLPGTAPKLLIYSNNKRPSGVPDRFSGSKSGTSASLAITGLQAEDEADYYCQSYDRSLSVVFGGGTKVTVL ?
Response: 0.16

Query: Which Neutralization IC50 (RSV subtype A) reading was recorded for the binder ADI-41377 (antibody, V domains shown, IgG1; also called Ab 674) VH: QVQLQQSGPGLVKPSQTLSLTCAISGDSVSSDSATWNWIRQSPSRGLEWLGRAYYRSKWYYDYAPSVKSRLTINPDTSKNQFSLQLTSVTPQDTAVYFCARDLPPLEYFDGSGYYFLDHWGQGTLVTVSS VL: SYELTQPPSVSVAPGQTARLSCGGHNIGSKSVQWYQQKPDQAPVLVVYDDHDRPSGIPDRFSGSNSGDMATLTISRVEAGDEADYYCQVCESGRDPMVFGGGTKVTVL ?
Response: 0.24

The measured values listed here are drawn from patent US20260258115A1.
